Observed GI50 values for Non-Small Cell Lung Cancer subpanel are listed in what follows.
Give bare numbers, in µM.

O=C1NC(=S)S/C1=C\C(Cl)=C\c1ccc([N+](=O)[O-])cc1	3.79

Hey, can you go through the list below and give me GI50 for every item?
1. O=C1/C(=C/C(Cl)=C/c2ccc([N+](=O)[O-])cc2)SC(=S)N1c1ccc(O)cc1
2. O=C(O)CCN1C(=O)/C(=C/C(Cl)=C/c2ccc([N+](=O)[O-])cc2)SC1=S
3. O=C(O)C(Cc1ccccc1)N1C(=O)/C(=C/C(Cl)=C/c2ccc([N+](=O)[O-])cc2)SC1=S (centres unmarked)
4. O=C1/C(=C/C(Cl)=C/c2ccc([N+](=O)[O-])cc2)SC(=S)N1/N=C\C(Cl)=C\c1ccc([N+](=O)[O-])cc1

A:
2.93
2.65
13.1
25.9

====

# Test system: M14
# assay method text: NCI DTP 60 cell line screen, SRB
# condition: Homo sapiens, M14, 48 h, read-out: LC50
I'd appreciate it if you could supply CC50 values for the items below.
Answers are plain numbers, in µM.

Solved entries (count: 2):
O=C(O)CCN1C(=O)/C(=C/C(Cl)=C/c2ccc([N+](=O)[O-])cc2)SC1=S [Compound 2h]	7.74
O=C1/C(=C/C(Cl)=C/c2ccc([N+](=O)[O-])cc2)SC(=S)N1/N=C\C(Cl)=C\c1ccc([N+](=O)[O-])cc1 [Compound 2c]	78.5

Q: CC50 lookup needed for O=C1/C(=C/C(Cl)=C/c2ccc([N+](=O)[O-])cc2)SC(=S)N1c1ccc(O)cc1 [Compound 2f] , thanks.
A: 7.32

====

I'd appreciate it if you could supply TGI values for the items below.
# Tested on: HOP-92
# assay method text: NCI DTP 60 cell line screen, SRB
# condition: HOP-92 (Non-Small Cell Lung Cancer), 48 h, SRB

Solved entries (count: 3):
O=C1NC(=S)S/C1=C\C(Cl)=C\c1ccc([N+](=O)[O-])cc1	> 50 µM
O=C(O)CCN1C(=O)/C(=C/C(Cl)=C/c2ccc([N+](=O)[O-])cc2)SC1=S	18.3 µM
O=C(O)C(Cc1ccccc1)N1C(=O)/C(=C/C(Cl)=C/c2ccc([N+](=O)[O-])cc2)SC1=S (stereo not shown)	5.71 µM

Moving on to the next compound.
Q: TGI lookup needed for O=C1/C(=C/C(Cl)=C/c2ccc([N+](=O)[O-])cc2)SC(=S)N1c1ccc(O)cc1 , thanks.
A: 39.4 µM

====

# Tested on: Melanoma subpanel
# assay method text: cells
# condition: Homo sapiens, read-out: MG_MID, LC50
readout: CC50 (µM)
Numbers only, in µM.

O=C1/C(=C/C(Cl)=C/c2ccc([N+](=O)[O-])cc2)SC(=S)N1c1ccc(O)cc1	52.3
O=C1/C(=C/C(Cl)=C/c2ccc([N+](=O)[O-])cc2)SC(=S)N1/N=C\C(Cl)=C\c1ccc([N+](=O)[O-])cc1	74.3

Hey, can you go through the list below and give me CC50 for every item?
1. O=C1NC(=S)S/C1=C\C(Cl)=C\c1ccc([N+](=O)[O-])cc1
2. O=C(O)CCN1C(=O)/C(=C/C(Cl)=C/c2ccc([N+](=O)[O-])cc2)SC1=S
3. O=C(O)C(Cc1ccccc1)N1C(=O)/C(=C/C(Cl)=C/c2ccc([N+](=O)[O-])cc2)SC1=S (centres unmarked)

A:
1: 36.8; 2: 53.1; 3: 50.6
